System: DU-145 prostate
Assay: NCI-60 one-dose screen, 48 h (100 = growth as untreated, 0 = no growth, -100 = all killed)
Conditions: 10 µM unless noted
Experimental: Cells are grown in 96 well plates and exposed to the test compound for 48 hours. Compounds are tested at a single concentration, which is 10^-5 M for most compounds. The reported endpoint is percent growth (GI% or GIPRCNT), where numbers from 0 - 100% represent growth inhibition, and numbers from -100% - 0 represent cell death. For example, a value of 40 represents 60% growth inhibition. A value of 0 means no net growth occurred over the course of the experiment. […]
The panel holds about 83,000 compounds, 20% with a hit somewhere; the sample as a whole holds those more often. Activity calls are given as the source filed them. Rule for the calls: active = growth percent below 10; inactive = the rest.
We begin with a simple list: items and their reported growth.

molecule | growth
Cn1c2ccccc2c2c3c(c4c5cc(Br)ccc5n(C)c4c21)C(=O)N(O)C3=O | -50.7% (active)
CN(C)c1ccc(/C=C2\C=C(c3nc4ccccc4s3)OC2=O)cc1 | 104% (inactive)
CN1C(=O)/C(=C/c2ccc(C(=O)Nc3ncc(Cc4cc(Cl)ccc4Cl)s3)cc2)SC1=S | 73.7% (inactive)
CCOC(=O)c1ccc[nH]1 | 116% (inactive)
CC1SC(c2ccccc2O)N(NC(=O)CCC(=O)c2nc3ncccc3[nH]2)C1=O (stereo not drawn) | 102% (inactive)
COc1ccc(-c2cc(C(=O)N3N=C(c4ccc(N)cc4)CC3c3ccc(Cl)cc3)c3cc(OC)ccc3n2)cc1 (stereo not drawn) | 83.7% (inactive)
CC[C@@H](C(=O)[C@@H](C)[C@@H](O)[C@H](C)[C@@H]1O[C@@H]([C@@H](CC)C(=O)ONC(=O)c2ccccc2O)CC[C@@H]1C)C1O[C@]2(C=CC(=O)[C@]3(CC[C@@](C)([C@H]4CC[C@](O)(CC)[C@H](C)O4)O3)O2)[C@H](C)C[C@@H]1C (stereo partly drawn) | 40.3% (inactive)
COc1ccc2c(c1)C(C)Cc1c(ncnc1-n1cnc3cc(C)ccc31)N2C (stereo not drawn) | 10.2% (inactive)
Fc1cccc(-c2nc(-c3c[nH]c4ncccc34)cs2)c1 | 63.8% [100 µM] (inactive)
CS(=O)(=O)Nc1cc(-c2ccc3ncnc(Nc4ccc(OCc5ccccn5)c(Cl)c4)c3c2)cnc1Cl | 16.5% (inactive)
Cc1[nH]n(-c2cccc(Cl)c2)c(=O)c1/C=C1\C=c2ccccc2=CC1=O | 35.4% (inactive)
O=C(/C=C/c1cn(-c2ccccc2)nc1-c1ccccc1)CCC(=O)NO | 112% (inactive)
CSc1nc2ccc(C)cc2cc1/C=C1/C=C(c2ccccc2)NC1=O | 47.4% (inactive)
Cc1ccc2c(c1)nc(C)n2-c1ncnc2c1CC(C)c1cc(O)ccc1N2C (stereo not drawn) | 42.1% (inactive)
C#COc1cccc(Nc2ncnc3cc(NC(=O)[C@H](C)Cl)ccc23)c1 | 20.3% [6.25 µM] (inactive)
CCN1C(=O)N(CC)C2C1NN=c1s/c(=C\c3ccc(OC)cc3)c(=O)n12 (stereo not drawn) | 6.18% (active)
O=C(/C=C/c1cccc(Oc2ccccc2)c1)c1ccc(Nc2nc(Nc3ccc(F)cc3)nc(Nc3ccc(Cl)cc3)n2)cc1 | 117% (inactive)
CCn1cc(C(=O)N/N=C/c2cccc(F)c2)c(=O)c2cc(F)c(N3CCNC(C)C3)c(F)c21 (stereo not drawn) | -87.5% (active)

----------
tested on: NCI-H460 lung; test: NCI-60 one-dose screen, 48 h; conditions: 10 µM unless noted
The panel holds about 83,000 compounds, 20% with a hit somewhere; the sample as a whole holds those more often. Activity calls are given as the source filed them. Rule for the calls: active = growth percent below 10; inactive = the rest.
Classes used: label 1 for active, label 0 for inactive

compound | classification
COc1cc(Cc2cc(OC)c(O)c(OC)c2)cc(OC)c1O | label 0
COc1ccc2cc(-c3nc4ccc(C)cn4c3NCc3ccco3)c(=O)[nH]c2c1 | label 0
Cc1cccc(N2C(=O)/C(=C/C(Cl)=C/c3ccc([N+](=O)[O-])cc3)SC2=S)c1C | label 0
CCn1cc(C(=O)O)c(=O)c2cc(F)c(N3CCN(CC(=O)Nc4ccccc4)C(C)C3)c(F)c21 (centres undefined) | label 0
COc1cc(C=C2C(=O)NC(=S)NC2=O)cc(CN2CCCC2)c1O | label 0
O=C(/C=C/c1ccccc1)c1ccc(-n2cc(CN3CCN(c4cc5c(cc4F)c(=O)c(C(=O)O)cn5C4CC4)CC3)nn2)cc1 | label 0
CCN(CC)CCOc1ccc(/C(=C(\C)Cc2ccc(OC)cc2)c2ccc(OC(=O)NCc3ccccc3)cc2)cc1 | label 1
O=C(/C=C/C12c3ccccc3C(c3ccccc31)C1C(=O)NC(=O)C12)c1ccc(Cl)cc1Cl (centres undefined) | label 1
CCOC(=O)CC1CSC(N/N=C/c2ccc(F)c(Br)c2)=N1 (centres undefined) | label 0

----------
system: PC-3 prostate; assay: NCI-60 one-dose screen, 48 h (100 = growth as untreated, 0 = no growth, -100 = all killed); settings: 10 µM unless noted
This is part of a sample that, as a whole, favours compounds with a hit. Of some 83,000 tested, about 20% had one in any assay.
Define the label as Yes when growth is strictly less than 80% and as No in all remaining cases.

compound | classification
C=C(C)[C@@H]1CC[C@]2(C(=O)N3CCNCC3)CC[C@]3(C)[C@H](CC[C@@H]4[C@@](C)(CCC(=O)N5CCNCC5)[C@H](C(=C)C)CC[C@]43C)[C@@H]12 | Yes
CNCC[C@H](Oc1cccc2ccccc12)c1cccs1 | Yes
O=C1Nc2ccccc2/C1=N/N1C(=O)CN(CCCl)C1=O | No
CCOc1ccc(/C=C/C(=O)c2cccc(OCCCOc3cccc(C(=O)/C=C/c4ccc(OCC)cc4)c3)c2)cc1 | Yes
O=C(NCCCCO)c1cncnc1Nc1ccc2c(ccn2Cc2cccc(F)c2)c1 | No
COc1cc2c(c(OC)c1OC)C(=O)CC(c1cccc(C(=O)Nc3ccccc3Br)c1)O2 (centres undefined) | Yes
COc1ccc(OC)c(Nc2nnc(-c3cc(OC)c(OC)c(OC)c3)o2)c1 | No
CC1=C2[C@@H](CC1)[C@]1(C)O[C@@](C3CCNCC3)(C[C@H]1OC(=O)CO)[C@H]2OC(=O)/C=C/c1ccccc1 | Yes
COC12C=C/C(=C(/C(=O)OCc3csc(SC)n3)C(=O)CCCCCCCCC3(OC)C=C/C(=C(/C(=O)OCc4cnc(SC)s4)C(=O)CCCCCCCC1)O3)O2 (centres undefined) | Yes
Cc1[nH]n(-c2cccc(Cl)c2)c(=O)c1/C=C1\C=c2ccccc2=CC1=O | Yes
N#Cc1ccc(O)c(C2=NCC(c3ccc(-c4ccccc4)cc3)O2)c1 (centres undefined) | Yes
CCOC(=O)c1cn2ncnc(Oc3ccc(NC(=O)NC4CC4)c(Cl)c3)c2c1C | No
Cc1cc(=O)n(C(=S)Nc2ccc(Cl)cc2)c2cc(O)ccc12 | No
O=C(NCCNC(c1ccccc1)C(NCCNC(=O)c1ccccc1)c1ccccc1)c1ccccc1 (centres undefined) | Yes
CCOC(=O)C#Cc1c(C(=O)OCC)nnn1[C@@H]1O[C@H](COC)[C@@H](OC)[C@H]1OC | No
CC(C)(C)CC(C)(C)Nc1c(-c2c(O)c3ccccc3oc2=O)nc2sc3ccccc3n12 | Yes
C[C@@H]1NC(=O)[C@H](Cc2ccccc2)N(Cc2cccnc2)C1=O | No
Cc1cccc(N2C(=O)/C(=C/C(Cl)=C/c3ccc([N+](=O)[O-])cc3)SC2=S)c1C | Yes
COC(=O)c1ccc2cc(OC)c(OC)cc2c1 | No
CCOC(=O)C1=C(CCl)N(C)C(=O)NC1c1ccc2c(c1)OCO2 (centres undefined) | Yes
COC(=O)[C@@]12CC=C(C)[C@]3(C[C@H](c4ccoc4)OC3=O)[C@H]1C=C[C@@H](O)[C@@]2(O)C(=O)OC | No
Cc1cccc(-c2nc(C(C)C)sc2-c2ccnc(NCCCNS(=O)(=O)c3ccc(Cl)cc3)c2)c1 | Yes
CCCCO[C@@H]1C=C2[C@H]3CC(C)(C)C(=O)C[C@]3(C(=O)O[C@@H]3O[C@H](CO[C@@H]4O[C@H](CO)[C@@H](OC5OC(C)C(O)C(O)C5O)[C@H](O)[C@H]4O)[C@@H](O)[C@H](O)[C@H]3O)CC[C@@]2(C)[C@]2(C)CC[C@H]3C(C)(C)C(=O)CC[C@]3(C)[C@@H]12 (some centres undefined) | No
C=C1CC[C@@H]2C(C)(C)[C@H](O)CC[C@@]2(C)[C@@H]1COc1ccc2ccc(=O)oc2c1 | Yes
COc1ccc(-c2cc(-c3cccnc3)nc3sc4c(N)c(C(C)=O)c(-c5ccccc5)nc4c23)cc1OC | Yes
COC1C(O)CC(OC2CC(OC3CC(O[C@@H]4C(=O)c5c(cc6cc(OC7CC(OC8CC(O)C(O)C(C)O8)C(O)C(C)O7)c(C)c(O)c6c5O)CC4[C@H](OC)C(=O)C(C)=O)OC(C)C3O)OC(C)C2O)OC1C (some centres undefined) | Yes
C=C1C(=O)O[C@H]2[C@H]1CC/C(COC(=O)NCc1ccc(Cn3c(=O)sn(-c4ccccc4)c3=O)cc1)=C\CC[C@@]1(C)O[C@@H]21 | Yes
CC1SC(c2ccccc2O)N(NC(=O)CCC(=O)c2nc3ncccc3[nH]2)C1=O (centres undefined) | No
Cc1nc2sc(C(=O)Nc3ccccn3)c(N)c2cc1C(C)O (centres undefined) | Yes
c1ccc(-c2nc3ccccc3[nH]2)c(OCCCCCOc2ccccc2-c2nc3ccccc3[nH]2)c1 | Yes
OC1(c2ccccc2)c2ccccc2N(c2ccccc2)c2ccc(Cl)cc21 (centres undefined) | Yes
O=C1OCC2=C1C(c1ccccc1)c1cc3c(cc1N2CCO)OCCO3 (centres undefined) | Yes
O=C(O)c1cn(C2CC2)c2cc(N3CCN(C(=O)N/N=C/c4cccc5ccccc45)CC3)c(F)cc2c1=O | No
